I'd appreciate it if you could supply sfGFP reporter fluorescence values for the items below.
B1: library; numbered along this chain (parent)
chain: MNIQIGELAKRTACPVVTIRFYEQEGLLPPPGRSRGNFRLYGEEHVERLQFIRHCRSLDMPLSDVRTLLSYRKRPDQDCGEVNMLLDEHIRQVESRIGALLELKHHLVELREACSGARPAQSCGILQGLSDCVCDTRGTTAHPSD

Variants of: B1
Test: sfGFP reporter fluorescence (15 h) (µM FITC); higher = stronger transcriptional activation
Conditions: library round: Round 0; ligand: 1 µM Pb
Output: the number by itself.

The recorded sfGFP reporter fluorescence for entry C79S equals 0.059

The recorded sfGFP reporter fluorescence for entry R20W equals 0.0616

The recorded sfGFP reporter fluorescence for entry P61Q equals 0.148

The recorded sfGFP reporter fluorescence for entry L107T equals 0.282

The recorded sfGFP reporter fluorescence for entry M60L D64K K104V equals 4.2

The recorded sfGFP reporter fluorescence for entry H89N equals 0.0663

The recorded sfGFP reporter fluorescence for entry L110Q equals 0.057

The recorded sfGFP reporter fluorescence for entry N83R equals 0.0775

The recorded sfGFP reporter fluorescence for entry R33Y equals 0.0618

The recorded sfGFP reporter fluorescence for entry R39T equals 0.0608

The recorded sfGFP reporter fluorescence for entry Y41T equals 0.0597

The recorded sfGFP reporter fluorescence for entry G36Y equals 0.0691

The recorded sfGFP reporter fluorescence for entry H105A equals 0.0687

The recorded sfGFP reporter fluorescence for entry R39C equals 0.061

The recorded sfGFP reporter fluorescence for entry E7K equals 0.113

The recorded sfGFP reporter fluorescence for entry H89Q equals 0.108

The recorded sfGFP reporter fluorescence for entry V108S equals 0.0696

The recorded sfGFP reporter fluorescence for entry G36Q equals 0.0676

The recorded sfGFP reporter fluorescence for entry R20Y equals 0.0638

The recorded sfGFP reporter fluorescence for entry N83Q equals 0.0693

The recorded sfGFP reporter fluorescence for entry C114Q equals 0.0586

The recorded sfGFP reporter fluorescence for entry L62K equals 0.0619

The recorded sfGFP reporter fluorescence for entry D131I equals 0.0797

The recorded sfGFP reporter fluorescence for entry P61N K104V G128I equals 0.341

The recorded sfGFP reporter fluorescence for entry R33F equals 0.061

The recorded sfGFP reporter fluorescence for entry P31A equals 0.0607

The recorded sfGFP reporter fluorescence for entry P30H equals 0.0808

The recorded sfGFP reporter fluorescence for entry I3G equals 0.0755

The recorded sfGFP reporter fluorescence for entry E109H equals 0.0867

The recorded sfGFP reporter fluorescence for entry E94Q equals 0.0856

The recorded sfGFP reporter fluorescence for entry C55F equals 0.0674

The recorded sfGFP reporter fluorescence for entry N2A equals 0.0614

The recorded sfGFP reporter fluorescence for entry Y22K equals 0.0627

The recorded sfGFP reporter fluorescence for entry L28M equals 0.077

The recorded sfGFP reporter fluorescence for entry P15S equals 0.0883

The recorded sfGFP reporter fluorescence for entry I125H equals 0.0601

The recorded sfGFP reporter fluorescence for entry T18A equals 0.0612

The recorded sfGFP reporter fluorescence for entry L28Y equals 0.0627

The recorded sfGFP reporter fluorescence for entry Y22P equals 0.0607

The recorded sfGFP reporter fluorescence for entry R39D equals 0.0608

The recorded sfGFP reporter fluorescence for entry V82S equals 0.057

The recorded sfGFP reporter fluorescence for entry G128E equals 0.0713

The recorded sfGFP reporter fluorescence for entry E109G equals 0.0695

The recorded sfGFP reporter fluorescence for entry R33H equals 0.0607

The recorded sfGFP reporter fluorescence for entry M60L K104V L107C G128I equals 3.59

The recorded sfGFP reporter fluorescence for entry K104V equals 0.173

The recorded sfGFP reporter fluorescence for entry I97W equals 0.0616

The recorded sfGFP reporter fluorescence for entry D64I equals 0.837

The recorded sfGFP reporter fluorescence for entry N83M equals 0.0768

The recorded sfGFP reporter fluorescence for entry V16T equals 0.0982

The recorded sfGFP reporter fluorescence for entry R33D equals 0.0638

The recorded sfGFP reporter fluorescence for entry P61N K104V L107C G128M equals 2.12

The recorded sfGFP reporter fluorescence for entry L58G equals 0.0548

The recorded sfGFP reporter fluorescence for entry I5A equals 0.0519

The recorded sfGFP reporter fluorescence for entry P119A equals 0.0629

The recorded sfGFP reporter fluorescence for entry H89P equals 0.055

The recorded sfGFP reporter fluorescence for entry L85R equals 0.0577

The recorded sfGFP reporter fluorescence for entry C134Y equals 0.154

The recorded sfGFP reporter fluorescence for entry L58D equals 0.0623

The recorded sfGFP reporter fluorescence for entry L110M equals 0.0564

The recorded sfGFP reporter fluorescence for entry D64V equals 0.507

The recorded sfGFP reporter fluorescence for entry M60Q equals 0.0588

The recorded sfGFP reporter fluorescence for entry L62Y equals 0.0623

The recorded sfGFP reporter fluorescence for entry C55Y equals 0.0623

The recorded sfGFP reporter fluorescence for entry P61N K104V equals 0.385

The recorded sfGFP reporter fluorescence for entry P30I equals 0.0869

The recorded sfGFP reporter fluorescence for entry P61N L107C equals 2.4

The recorded sfGFP reporter fluorescence for entry L107G equals 0.0836

The recorded sfGFP reporter fluorescence for entry D131P equals 0.0619

The recorded sfGFP reporter fluorescence for entry D64K K104V G128I equals 1.75

The recorded sfGFP reporter fluorescence for entry D64N equals 0.137

The recorded sfGFP reporter fluorescence for entry P61D equals 0.123

The recorded sfGFP reporter fluorescence for entry T12A equals 0.0733

The recorded sfGFP reporter fluorescence for entry R20D equals 0.0616

The recorded sfGFP reporter fluorescence for entry G32A equals 0.0586

The recorded sfGFP reporter fluorescence for entry R39Q equals 0.0599

The recorded sfGFP reporter fluorescence for entry V46S equals 0.0687

The recorded sfGFP reporter fluorescence for entry R74A equals 0.0669

The recorded sfGFP reporter fluorescence for entry M60L K104V G128M equals 1.46

The recorded sfGFP reporter fluorescence for entry R33G equals 0.0575

The recorded sfGFP reporter fluorescence for entry Y41Q equals 0.0597

The recorded sfGFP reporter fluorescence for entry G6M equals 0.0586

The recorded sfGFP reporter fluorescence for entry L28A equals 0.0603

The recorded sfGFP reporter fluorescence for entry V82C equals 0.0588

The recorded sfGFP reporter fluorescence for entry I97R equals 0.0564

The recorded sfGFP reporter fluorescence for entry C134D equals 0.0684

The recorded sfGFP reporter fluorescence for entry G128M equals 0.311

The recorded sfGFP reporter fluorescence for entry L27Q equals 0.0618

The recorded sfGFP reporter fluorescence for entry P61C equals 0.193

The recorded sfGFP reporter fluorescence for entry I3R equals 0.0792

The recorded sfGFP reporter fluorescence for entry L129N equals 0.0583

Source: the supplement of paper PMC12783771
